Below, each entry is listed alongside its reported protein stability index.
Test summary: protein stability index of a GFP-peptide fusion (yeast GPS) (PSI 1-4); higher = more stable; sorted into four equal gates, so the index is relative within each strain
Protocol conditions: ubr1∆
Output spec: single numeric token, no unit.

Consider the worked cases shown below.
Residue string	Value reported
KALILAPTRELVQQIQK [PRP28]	3
VQEQLSKNRIIVEADEK [RET1]	1.4
ACSSSGRETILSNFNAD [SIR3]	2.75
RMHLAPASKQGYLITPP [SSN2]	1.36
YCHEKELTIIKNPRVTK [CSN9]	2.13
ENTVGLISGAGANPRVL [RPN10]	1.4

Then this sequence:
I would be grateful if you could share the reported protein stability index for YTNSVELRSLSKKDFKI [YMR129W/POM152] . 2.92

====

Test summary: protein stability index of a GFP-peptide fusion (yeast GPS) (PSI 1-4); higher = more stable; sorted into four equal gates, so the index is relative within each strain
Protocol conditions: san1∆
Below, each entry is listed alongside its reported protein stability index.
Output spec: single numeric token, no unit.

Consider the worked cases shown below.
Residue string	protein stability index
AWGALITTFVKRSTVPL [YML103C/NUP188]	2.49
ENYSAMIFETIVDGKLK [FAS1]	2.98

Then this sequence:
I would be grateful if you could share the reported protein stability index for TESPLKTVDSSIQPIES [SSN2] . 2.91

====

Below, each entry is listed alongside its reported protein stability index.
Test summary: protein stability index of a GFP-peptide fusion (yeast GPS) (PSI 1-4); higher = more stable; sorted into four equal gates, so the index is relative within each strain
Protocol conditions: san1∆

Consider the worked cases shown below.
Residue string	protein stability index
TRLPAFERPAVKEEKED [RPC53]	3.21
IAEGKSKQDASPKPYAV [RPL8B]	3.12
ADVFRRCLVAVIQQDKY [SRP72]	1.86

I would be grateful if you could share the reported protein stability index for LSTSAFMEIVLEYNVAL [YML031W/NDC1] . 1.78

I would be grateful if you could share the reported protein stability index for EIAQANSRNAIRKLVKN [RPL19A] . 2.86

I would be grateful if you could share the reported protein stability index for EQSVKTQNSRHYMVHEA [LIN1] . 2.49

====

Test summary: protein stability index of a GFP-peptide fusion (yeast GPS) (PSI 1-4); higher = more stable; sorted into four equal gates, so the index is relative within each strain
Protocol conditions: san1∆
Measured parameter: protein stability index
Output spec: single numeric token, no unit.

Consider the worked cases shown below.
Residue string	protein stability index
LDDLQVILAKNENETRD [PGD1]	2.93
ADNTKDKEKEENNDDAL [MED4]	2.98
VMYNGHTGKKLMAQIFF [RPB2]	3.08
TSPFGGARPGRVARRNA [RPS9A]	3.02
MDYHFIFSYLQFTSSLF [RGR1]	1.25
IRAIRKVISEILTKEVQ [RPS1A]	1.83
ETFSTSAHQSPIMQTQM [SNF2]	3.28
EGAARGTSVYLVDKRID [DIS3]	3.13
DDSDNVMSSDDENAPVA [PRE10]	3.49
VVTSSVAESFTDEADSS [SNF2]	3.15

I would be grateful if you could share the reported protein stability index for DTKDALSTRELAGKVGS [RPC53] . 2.79

I would be grateful if you could share the reported protein stability index for YSDIGGLESQIQEIKES [RPT2] . 1.88
